Kindly supply the reported pEC50 values for the records listed here.
# system-name: FXR (Homo sapiens (Human))
# Sequence (Q96RI1 262-486): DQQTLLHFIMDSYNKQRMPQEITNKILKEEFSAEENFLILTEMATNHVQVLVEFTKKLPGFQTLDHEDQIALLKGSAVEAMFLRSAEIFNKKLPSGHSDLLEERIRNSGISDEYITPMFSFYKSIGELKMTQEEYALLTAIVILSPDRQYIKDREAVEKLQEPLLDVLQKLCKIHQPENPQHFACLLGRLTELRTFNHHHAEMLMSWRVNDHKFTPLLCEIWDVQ
# experimental-details: FXR EC50 (FXR agonist activity reported with each example)
# Type: cell-based
One number for each entry, as −log10 of the molar value.

Study these solved cases before continuing.
O=C(O)c1cc(OCC23CCC(OCc4c(-c5c(Cl)cncc5Cl)noc4C4CC4)(CC2)CC3)ccc1F [Example 277] = 7.33
O=C(O)c1csc(C23CCC(COCc4c(-c5ccccc5OC(F)(F)F)noc4C4CC4)(CC2)CO3)n1 [Example 214] = 5.85
COc1cc(C(=O)O)nc2c(F)cc(OCC34CCC(OCc5c(-c6c(Cl)cncc6Cl)noc5C5CC5)(CC3)CC4)cc12 [Example 303] = 7.62
CC(C)Oc1cc(C(=O)O)cc(-c2noc(C34CCC(OCc5c(-c6c(Cl)cncc6Cl)noc5C5CC5)(CC3)CC4)n2)c1 [Example 251] = 7.80

Provide pEC50 for all items below, preserving their order.
1. O=C(O)c1cnc(OCC23CCC(OCc4c(-c5c(Cl)cncc5Cl)noc4C4CC4)(CC2)CC3)c(F)c1 [Example 118]
2. O=C(O)c1ccc(-c2noc(C34CCC(/C=C\c5c(-c6c(Cl)cccc6Cl)noc5C5CC5)(CC3)CC4)n2)cc1 [Example 164]
3. O=C(O)c1ccc2nc(C34CCC(COCc5c(-c6c(Cl)cccc6Cl)noc5C5CC5)(CC3)CC4)sc2c1 [Example 168]
4. O=C(O)c1ccc(-c2noc(C34CCC(OCc5c(-c6c(Cl)cccc6Cl)noc5C5CC5)(CC3)CO4)n2)cc1 [Example 196]
5. O=C(O)c1cccc(-c2nnc(C34CCC(OCc5c(-c6ccccc6OC(F)(F)F)noc5C5CC5)(CC3)CC4)o2)c1 [Example 18]
6. O=C(O)c1cccc(/C=C/C23CCC(OCc4c(-c5c(Cl)cccc5Cl)noc4C4CC4)(CC2)CC3)c1 [Example 7]
7. NC(=O)c1noc(C23CCC(OCc4c(-c5c(Cl)cccc5Cl)noc4C4CC4)(CC2)CC3)n1 [Example 74]
8. O=C(O)c1cc(C#CC23CCC(OCc4c(-c5c(Cl)cncc5Cl)noc4C4CC4)(CC2)CC3)cc(OC(F)(F)F)c1 [Example 378]

1: 7.48; 2: 5.80; 3: 5.92; 4: 7.08; 5: 5.96; 6: 6.82; 7: 6.28; 8: 6.89

Provide pEC50 for all items below, preserving their order.
1. O=C(O)c1ccc(-c2noc(C34CCC(OCc5c(-c6ccccc6C(F)(F)F)noc5C5CC5)(CC3)CC4)n2)cc1 [Example 29]
2. Cc1ccc(C(=O)O)c2ccc(C34CCC(OCc5c(-c6c(Cl)cncc6Cl)noc5C5CC5)(CC3)CC4)nc12 [Example 389]

[6.48, 8.22]
